Target: Coagulation Factor Xa, from human plasma (human, UniProt P00742 41-488, limits assumed)
Sequence (P00742 41-488 limits assumed): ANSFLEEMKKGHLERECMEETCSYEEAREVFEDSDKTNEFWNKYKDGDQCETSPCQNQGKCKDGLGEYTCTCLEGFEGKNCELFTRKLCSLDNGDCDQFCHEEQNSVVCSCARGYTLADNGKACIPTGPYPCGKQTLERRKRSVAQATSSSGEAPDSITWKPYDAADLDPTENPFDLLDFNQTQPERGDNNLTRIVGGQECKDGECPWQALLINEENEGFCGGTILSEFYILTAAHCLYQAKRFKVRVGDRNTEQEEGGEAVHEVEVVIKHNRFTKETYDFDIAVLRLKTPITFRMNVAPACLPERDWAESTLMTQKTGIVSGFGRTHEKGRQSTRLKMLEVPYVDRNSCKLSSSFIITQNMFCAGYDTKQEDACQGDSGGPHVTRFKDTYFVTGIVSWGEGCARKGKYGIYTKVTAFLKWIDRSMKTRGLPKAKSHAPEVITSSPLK
Assay: cell-based or functional assay
Metric name: % inhibition at 100 µM (%)
Answer in %, number only, no unit symbol.

RCTKSDPPICF (HELM PEPTIDE1{R.C.T.K.S.D.P.P.I.C.F.[dP].P}$PEPTIDE1,PEPTIDE1,2:R3-10:R3|PEPTIDE1,PEPTIDE1,1:R1-13:R2$$$V2.0; SMILES CC[C@H](C)[C@@H]1NC(=O)[C@@H]2CCCN2C(=O)[C@@H]2CCCN2C(=O)[C@H](CC(=O)O)NC(=O)[C@H](CO)NC(=O)[C@H](CCCCN)NC(=O)[C@H]([C@@H](C)O)NC(=O)[C@@H]2CSSC[C@H](NC1=O)C(=O)N[C@@H](Cc1ccccc1)C(=O)N1CCC[C@@H]1C(=O)N1CCC[C@H]1C(=O)N[C@@H](CCCNC(=N)N)C(=O)N2) [Example 75] : 5.7

Next:
Q. I would be grateful if you could share the reported % inhibition at 100 µM for XCTASXPPQCY (HELM PEPTIDE1{[Nle].C.T.A.S.[CCCCCCCC[C@H](N[*:1])C(=O)[*:2]].P.P.Q.C.Y.[dP].P}$PEPTIDE1,PEPTIDE1,2:R3-10:R3|PEPTIDE1,PEPTIDE1,1:R1-13:R2$$$V2.0; SMILES CCCCCCCC[C@@H]1NC(=O)[C@H](CO)NC(=O)[C@H](C)NC(=O)[C@H]([C@@H](C)O)NC(=O)[C@@H]2CSSC[C@H](NC(=O)[C@H](CCC(N)=O)NC(=O)[C@@H]3CCCN3C(=O)[C@@H]3CCCN3C1=O)C(=O)N[C@@H](Cc1ccc(O)cc1)C(=O)N1CCC[C@@H]1C(=O)N1CCC[C@H]1C(=O)N[C@@H](CCCC)C(=O)N2) [Example 81] .
A. 8.7
